Measured values drawn from patent US11578079B2 for this set.

- target_entity: SUMO (Homo sapiens, UniProt Q9UBT2)
- Sequence (Q9UBT2 whole entry): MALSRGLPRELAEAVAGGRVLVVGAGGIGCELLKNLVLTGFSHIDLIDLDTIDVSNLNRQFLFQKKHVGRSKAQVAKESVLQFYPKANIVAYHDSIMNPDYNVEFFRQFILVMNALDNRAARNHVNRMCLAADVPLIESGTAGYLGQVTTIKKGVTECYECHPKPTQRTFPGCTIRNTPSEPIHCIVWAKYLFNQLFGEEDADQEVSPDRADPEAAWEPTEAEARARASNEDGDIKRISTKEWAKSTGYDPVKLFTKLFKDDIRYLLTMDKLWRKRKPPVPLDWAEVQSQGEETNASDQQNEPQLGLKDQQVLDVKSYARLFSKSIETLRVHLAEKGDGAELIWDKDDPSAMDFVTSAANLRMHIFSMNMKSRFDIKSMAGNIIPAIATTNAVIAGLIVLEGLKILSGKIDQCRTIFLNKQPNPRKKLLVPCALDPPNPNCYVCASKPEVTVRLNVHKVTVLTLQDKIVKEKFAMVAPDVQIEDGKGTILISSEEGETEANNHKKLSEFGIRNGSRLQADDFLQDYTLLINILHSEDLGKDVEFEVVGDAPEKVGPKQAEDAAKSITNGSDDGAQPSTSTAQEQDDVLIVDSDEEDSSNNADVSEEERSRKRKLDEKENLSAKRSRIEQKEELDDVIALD
- Sequence (Q9UBE0 whole entry partner): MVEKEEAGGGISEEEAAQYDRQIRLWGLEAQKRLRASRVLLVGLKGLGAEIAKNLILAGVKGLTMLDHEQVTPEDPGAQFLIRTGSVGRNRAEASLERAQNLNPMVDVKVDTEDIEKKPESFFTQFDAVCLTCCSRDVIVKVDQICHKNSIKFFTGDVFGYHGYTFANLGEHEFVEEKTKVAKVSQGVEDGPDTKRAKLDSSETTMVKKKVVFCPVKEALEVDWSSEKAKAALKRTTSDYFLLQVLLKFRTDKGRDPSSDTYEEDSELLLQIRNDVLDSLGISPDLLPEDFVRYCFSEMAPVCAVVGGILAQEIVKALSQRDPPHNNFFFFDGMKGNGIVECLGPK
- assay_text: SUMO activity (Table I, biological activities)
- Format: biochemical
- Design: key: + (less active); ++ (active); +++ (most active)
assay_readout: SUMO

Examples with their reported SUMO follow.
COC(=O)C1=C(C(=O)OC)C2(C(Cc3ccccc3)Oc3cccc(CO)c3)C=CC1O2 (stereo not drawn)	++
CCOC(=O)C1=C(C(=O)Nc2ccccc2)C2C=CC1(C(Nc1ccccc1)c1ccc(CN3CCOCC3)cc1)O2 (stereo not drawn)	++
CCOc1cccc(NC(Cc2ccccc2)C23C=CC(O2)C(C(=O)NC)=C3C(=O)OC)c1 (stereo not drawn)	++
COC(=O)C1=C(C(=O)Nc2ccc(OC)cc2)C2C=CC1(C(Cc1ccccc1)Nc1ccccc1)O2 (stereo not drawn)	++

[ask] What does the record list as SUMO for COC(=O)C1=C(C(=O)Nc2cnc(C)nc2)C2C=CC1(C(Cc1ccccc1)Oc1ccccc1)O2 (stereo not drawn) ?
[reply] ++

[ask] What measured SUMO goes with COC(=O)C1=C(C(=O)NC2CN(C(=O)OC(C)(C)C)C2)C2C=CC1(C(Cc1ccccc1)Nc1ccccc1)O2 (stereo not drawn) ?
[reply] ++

[ask] # SUMO lookup, item COC(=O)C1=C(C(=O)NCCN2CCCC2)C2C=CC1(C(Cc1ccccc1)Nc1ccccc1)O2 (stereo not drawn)
[reply] +++

[ask] Tell me the measured SUMO of COC(=O)C1=C(C(=O)NNc2ccccc2)C2C=CC1(C(Cc1ccccc1)Nc1cc(F)cc(F)c1)O2 (stereo not drawn) , please.
[reply] ++
